Data provenance is paper PMC6979384.

Test system: KDM5A (3)
assay-summary: Histone peptide microarray
Assay type: binding, human
reported-conditions: KDM5A (3), GST-tagged; arrays performed twice, n of 4
Where no end group is shown, it is not given here. [ ]: non-standard residue; d: D form. Arg(Me2a) = CN(C)C(=N)NCCC[C@H](N)C(=O)O; pS = N[C@@H](COP(=O)(O)O)C(=O)O
The following substances are shown together with reported Array Heatmap value (peptide array binding signal) values.
endpoint-label: Array Heatmap value (peptide array binding signal)

| substance | measured-result |
| --- | --- |
| H2AX (132-142): H2AX 132-142 (GKKATQASQEY; UniProt P16104 133-143, looked up, fragment) | 0.478 |
| H4K12ac + KQ5,8,16,20: H4 1-23 (SGRGQGGQGLGK(Ac)GGAQRHRQVLR; UniProt P62805 2-24, looked up, variant K5Q K8Q K16Q K20Q) | 0.4384 |
| H2AR3me2a + K5ac: H2A 1-17 (SG[Arg(Me2a)]GK(Ac)QGGKARAKAKTR; UniProt P0C0S8 2-18, looked up, fragment) | 0.4055 |
| H2A.Z (1-19) (N-ac): H2AZ 1-19 (Ac-AGGKAGKDSGKAKTKAVSR; UniProt P0C0S5 2-20, looked up, fragment) | 0.4284 |
| H2AS1p + K5ac: H2A 1-17 ([pS]GRGK(Ac)QGGKARAKAKTR; UniProt P0C0S8 2-18, looked up, fragment) | 0.4071 |
| H2A.Z K4ac + K8ac + K12ac (1-19) (N-ac): H2AZ 1-19 (Ac-AGGKAGKDSGKAKTKAVSR; not fully specified (residue 4); UniProt P0C0S5 2-20, looked up, fragment) | 0.4842 |
| H2A.Z (1-19): H2AZ 1-19 (AGGKAGKDSGKAKTKAVSR; UniProt P0C0S5 2-20, looked up, fragment) | 0.4992 |
| H2AS1p + R3me2a + K5ac: H2A 1-17 ([pS]G[Arg(Me2a)]GK(Ac)QGGKARAKAKTR; UniProt P0C0S8 2-18, looked up, fragment) | 0.5245 |
| Myc-Tag: 1-10 (ILKKATAYIL; Myc epitope tag; UniProt P01106 410-419, looked up, fragment) | 0.493 |
| H2AX (S139p): H2AX 132-142 (GKKATQA[pS]QEY; UniProt P16104 133-143, looked up, fragment) | 0.4478 |

---

Tested on: DIDO1
assay-summary: Histone peptide microarray
Format: binding, human
reported-conditions: DIDO1, GST-tagged; arrays performed twice, n of 4
Where no end group is shown, it is not given here. [ ]: non-standard residue; d: D form. Arg(Me2a) = CN(C)C(=N)NCCC[C@H](N)C(=O)O; pS = N[C@@H](COP(=O)(O)O)C(=O)O
Classify: yes when Array Heatmap value (peptide array binding signal) is strictly less than 0.7; no when Array Heatmap value (peptide array binding signal) is not.

| substance | group-label |
| --- | --- |
| H2AS1p + R3me2a + K5ac: H2A 1-17 ([pS]G[Arg(Me2a)]GK(Ac)QGGKARAKAKTR; UniProt P0C0S8 2-18, looked up, fragment) | no |
| H4K12ac + KQ5,8,16,20: H4 1-23 (SGRGQGGQGLGK(Ac)GGAQRHRQVLR; UniProt P62805 2-24, looked up, variant K5Q K8Q K16Q K20Q) | no |
| H2A.Z (1-19): H2AZ 1-19 (AGGKAGKDSGKAKTKAVSR; UniProt P0C0S5 2-20, looked up, fragment) | no |
| H2A.Z K4ac + K8ac + K12ac (1-19) (N-ac): H2AZ 1-19 (Ac-AGGKAGKDSGKAKTKAVSR; not fully specified (residue 4); UniProt P0C0S5 2-20, looked up, fragment) | no |
| H2AX (S139p): H2AX 132-142 (GKKATQA[pS]QEY; UniProt P16104 133-143, looked up, fragment) | yes |
| H2A.Z (1-19) (N-ac): H2AZ 1-19 (Ac-AGGKAGKDSGKAKTKAVSR; UniProt P0C0S5 2-20, looked up, fragment) | yes |
| H2AR3me2a + K5ac: H2A 1-17 (SG[Arg(Me2a)]GK(Ac)QGGKARAKAKTR; UniProt P0C0S8 2-18, looked up, fragment) | yes |
| H2AS1p + K5ac: H2A 1-17 ([pS]GRGK(Ac)QGGKARAKAKTR; UniProt P0C0S8 2-18, looked up, fragment) | yes |
| Myc-Tag: 1-10 (ILKKATAYIL; Myc epitope tag; UniProt P01106 410-419, looked up, fragment) | no |
| H2AX (132-142): H2AX 132-142 (GKKATQASQEY; UniProt P16104 133-143, looked up, fragment) | no |
